Hello, the source for this data is BigSolDB 2.1, in case you need it.

# cond: in cyclohexanone, 308.15 K

{"smiles": "O=C1NC(=O)c2cc([N+](=O)[O-])ccc21", "solubility (mole fraction)": 0.0552}

###

# cond: in acetone, 295.65 K
observable: solubility (mole fraction)

{"smiles": "O=C1NC(=O)c2cc([N+](=O)[O-])ccc21", "observable": "solubility (mole fraction)", "observed result": 0.0261}

###

# cond: in ethanol, 278.15 K
observable: solubility (mole fraction)

{"smiles": "O=C1NC(=O)c2cc([N+](=O)[O-])ccc21", "observable": "solubility (mole fraction)", "observed result": 0.000897}

###

# cond: in DMF, 293.15 K
observable: solubility (mole fraction)

{"smiles": "O=C1NC(=O)c2cc([N+](=O)[O-])ccc21", "observed result": 0.0682}

###

# cond: in benzyl alcohol, 315.65 K

{"smiles": "O=C1NC(=O)c2cc([N+](=O)[O-])ccc21", "solubility (mole fraction)": 0.0393}

###

# cond: in ethyl acetate, 273.15 K

{"smiles": "O=C1NC(=O)c2cc([N+](=O)[O-])ccc21", "solubility (mole fraction)": 0.00919}

###

# cond: in DMF, 303.15 K
observable: solubility (mole fraction)

{"smiles": "O=C1NC(=O)c2cc([N+](=O)[O-])ccc21", "observed result": 0.0912}

###

# cond: in DMF, 273.15 K

{"smiles": "O=C1NC(=O)c2cc([N+](=O)[O-])ccc21", "solubility (mole fraction)": 0.0357}

###

# cond: in acetone, 318.15 K
observable: solubility (mole fraction)

{"smiles": "O=C1NC(=O)c2cc([N+](=O)[O-])ccc21", "observed result": 0.0366}

###

# cond: in isopropanol, 303.15 K
observable: solubility (mole fraction)

{"smiles": "O=C1NC(=O)c2cc([N+](=O)[O-])ccc21", "observed result": 0.00214}

###

# cond: in 1,4-dioxane, 313.15 K

{"smiles": "O=C1NC(=O)c2cc([N+](=O)[O-])ccc21", "solubility (mole fraction)": 0.0371}

###

# cond: in 2-butanone, 273.15 K

{"smiles": "O=C1NC(=O)c2cc([N+](=O)[O-])ccc21", "solubility (mole fraction)": 0.0161}

###

# cond: in isopropanol, 298.15 K
observable: solubility (mole fraction)

{"smiles": "O=C1NC(=O)c2cc([N+](=O)[O-])ccc21", "observed result": 0.00175}

###

# cond: in isopropanol, 283.15 K

{"smiles": "O=C1NC(=O)c2cc([N+](=O)[O-])ccc21", "solubility (mole fraction)": 0.000937}
